Assay: solubility in water stated in description and preparation examples
Type: physicochemical
Details: room temperature, read-out: water-solubility
Readout Label: solubility (mg/mL)
Give bare numbers, in mg/mL.

Data request, read-out solubility, for COc1c(O)cc2occ(-c3ccc(O)c(S(=O)(=O)[O-])c3)c(=O)c2c1O.[Na+] [Compound (IV), tectorigenin sodium sulfonate] 20

----------
Test system: Vero-E6 cell
Test: toxicity to Vero-E6 cell (CPE, REED-MUENCH)
Details: five days, CPE index
Field 'label' (enum: true (1) / false (0)). Set to true (1) when TD50 (median toxic concentration) is strictly under 4 mg/mL; else false (0).

Worked examples follow.
COc1c(O)cc2occ(-c3ccc(O)c(N)c3)c(=O)c2c1O [Compound (VI)] | true (1)
COc1c(O)c(CN2CCCCC2)c2occ(-c3ccc(O)cc3)c(=O)c2c1O [Compound (IX)] | true (1)
COc1c(O)cc2occ(-c3ccc(O)c(S(=O)(=O)[O-])c3)c(=O)c2c1O.[Na+] [Compound (IV), tectorigenin sodium sulfonate] | false (0)
COc1c(O)cc2occ(-c3ccc(OCCN(C)C)cc3)c(=O)c2c1O [Compound (VIII)] | true (1)

For this compound, is TD50 (median toxic concentration) lower than 4 mg/mL? COc1c(O)cc2occ(-c3ccc(OCC(=O)[O-])cc3)c(=O)c2c1O.[Na+] [Compound (VII)] false (0)

----------
Assay: solubility in water stated in description and preparation examples
Type: physicochemical
Conditions: 60 °C, after heating to 60˜100° C., read-out: water-solubility
Readout Label: solubility

Any idea what solubility was measured for COc1c(O)cc2occ(-c3ccc(O)c(S(=O)(=O)[O-])c3)c(=O)c2c1O.[Na+] [Compound (IV), tectorigenin sodium sulfonate] ? 50 to 60 mg/mL

----------
Assay: solubility test in water (Chinese Pharmacopeia method)
Conditions: 25° C.±2° C., shaken every five minutes for 30 minutes
Threshold rule: Solute: water greater than or equal to 9 mg/mL is true; below that, false.

COc1c(O)cc2occ(-c3ccc(OCCN(C)C)cc3)c(=O)c2c1O | true

Is reported Solute: water greater than or equal to 9 mg/mL here: COc1c(O)cc2occ(-c3ccc(O)c(N)c3)c(=O)c2c1O false

Solute: water >= 9 mg/mL for COc1c(O)cc2occ(-c3ccc(O)c(S(=O)(=O)[O-])c3)c(=O)c2c1O.[Na+] [Compound (IV), tectorigenin sodium sulfonate] ? true

Answer whether Solute: water of COc1c(O)c(CN2CCCCC2)c2occ(-c3ccc(O)cc3)c(=O)c2c1O is greater than or equal to 9 mg/mL. false

Is Solute: water at least 9 mg/mL? Consider COc1c(O)cc2occ(-c3ccc(OCC(=O)[O-])cc3)c(=O)c2c1O.[Na+] true

Entry COc1c(O)cc2occ(-c3ccc(O)cc3)c(=O)c2c1O [Compound (I), 5,7,4′-trihydroxy-6-methoxyl isoflavone, reference compound] : is its Solute: water no less than 9 mg/mL? false

----------
Assay: solubility in water stated in description and preparation examples
Type: physicochemical
Details: product of the preparation example (salt as made), read-out: solubility in water
Please respond with reported solubility for every item in the list.

Examples from the recorded data:
COc1c(O)c(CN2CCCCC2)c2occ(-c3ccc(O)cc3)c(=O)c2c1O | < 1000 µg/mL
COc1c(O)cc2occ(-c3ccc(O)c(N)c3)c(=O)c2c1O | > 1000 µg/mL
COc1c(O)cc2occ(-c3ccc(OCC(=O)[O-])cc3)c(=O)c2c1O.[Na+] | > 2000 µg/mL
COc1c(O)cc2occ(-c3ccc(OCCN(C)C)cc3)c(=O)c2c1O | > 2000 µg/mL

Which solubility is reported for this compound? COc1c(O)c(CN(C)C)c2occ(-c3ccc(O)cc3)c(=O)c2c1O > 2000 µg/mL

Source listed as patent US7902253B2.
